- Test system: Bacillus spizizenii
- ASSAY PROCEDURE: Antimicrobial activity against Bacillus subtilis subsp. spizizenii ATCC 6633 after 24 hr by agar cup diffusion technique
- Type: functional
ASSAY ENDPOINT: inhibition zone (IZ)

Any idea what inhibition zone (IZ) was measured for CC(=O)c1n[nH]c2nc3c(=O)n(C)c(=O)n(C)c3n2c1=O ?
14 mm

// repeat for Cn1c(=O)c2nc3[nH]nc(C(=O)O)c(=O)n3c2n(C)c1=O and report
14 mm

----------
Below: a set of entries, each annotated with reported inhibition zone (IZ).
- System: Escherichia coli
- ASSAY PROCEDURE: Antimicrobial activity against Escherichia coli 5933 after 24 hr by agar cup diffusion technique
- Format: functional
Please reply with the bare figure in mm and do not write the unit itself.

Some compounds with known inhibition zone (IZ) results, for comparison:
{"columns": ["COMPOUND", "inhibition zone (IZ) [mm]"],
 "data": [
  ["Cn1c(=O)c2c(n(C)c1=O)n1c(-c3ccccc3)nnc1n2C", 14],
  ["Cn1c(=O)c2nc3[nH]nc(C#N)c(=O)n3c2n(C)c1=O", 12],
  ["Cn1c(=O)c2nc3[nH]nc(C(=O)O)c(=O)n3c2n(C)c1=O", 13],
  ["Cn1c(=O)c2c(n(C)c1=O)n1c(SCc3ccccc3)nnc1n2C", 12],
  ["CCOC(=O)c1n[nH]c2nc3c(=O)n(C)c(=O)n(C)c3n2c1=N", 15],
  ["COc1ccc(-c2nnc3n(C)c4c(=O)n(C)c(=O)n(C)c4n23)cc1", 20]
]}

Kindly consider the entry below.
Return reported inhibition zone (IZ); argument: Cn1c(=O)c2c(n(C)c1=O)n1c(-c3ccc(Cl)cc3)nnc1n2C
12

----------
- System: Bacillus spizizenii
- ASSAY PROCEDURE: Antimicrobial activity against Bacillus subtilis subsp. spizizenii ATCC 6633 after 24 hr by agar cup diffusion technique
- Format: functional
Recorded inhibition zone (IZ) values for a group of molecules are listed next.
The reply should be a number in mm, with the unit left off.

Worked examples follow.
{"columns": ["COMPOUND", "RECORDED NUMBER"],
 "data": [
  ["CCSc1nnc2n(C)c3c(=O)n(C)c(=O)n(C)c3n12", 13],
  ["Cn1c(=O)c2c(n(C)c1=O)n1c(=S)[nH]nc1n2C", 11],
  ["Cn1c(=O)c2[nH]c(/N=N/c3c(N)n[nH]c3N)nc2n(C)c1=O", 10],
  ["CCOC(=O)c1n[nH]c2nc3c(=O)n(C)c(=O)n(C)c3n2c1=N", 14],
  ["COc1ccc(-c2nnc3n(C)c4c(=O)n(C)c(=O)n(C)c4n23)cc1", 20]
]}

Please turn your attention to the following entry.
Find inhibition zone (IZ) (Bacillus spizizenii) for the entry Cn1c(=O)c2c(n(C)c1=O)n1c(-c3ccc(Cl)cc3)nnc1n2C
13

----------
- System: Bacillus spizizenii
- ASSAY PROCEDURE: Antimicrobial activity against Bacillus subtilis subsp. spizizenii ATCC 6633 after 24 hr by agar cup diffusion technique
- Type: functional
ASSAY ENDPOINT: inhibition zone (IZ) (mm)
Just the number please, in mm, no unit attached.

For orientation, consider the following solved cases.
{"columns": ["COMPOUND", "UNIT ABBREVIATION", "RECORDED NUMBER"],
 "data": [
  ["Cn1c(=O)c2nc3[nH]nc(C#N)c(=N)n3c2n(C)c1=O", "mm", 14],
  ["Cn1c(=O)c2c(n(C)c1=O)n1c(-c3ccc(Br)cc3)nnc1n2C", "mm", 11]
]}

Please examine the following record next.
Dear colleague, I am looking for the recorded inhibition zone (IZ) of the following compound: Cn1c(=O)c2c(n(C)c1=O)n1c(-c3ccccc3)nnc1n2C
15
